For each record, write down the corresponding HC50.
System: human red blood cells (hRBCs)
Assay: Hemolysis assay
Format: cell-based
Conditions: red cells of human, 1 h
Where a SMILES comes first, the peptide text is derived from it. Bridges are numbered along the chain shown (N, C = ends). Roman numbers before positions name the chains, in order. Side-chain parts run from the residue outwards. [ ]: non-standard residue; d: D form. The star is where a group is joined. Myristoyl = CCCCCCCCCCCCCC(=O)*; Lauroyl = CCCCCCCCCCCC(=O)*; Decanoyl = CCCCCCCCCC(=O)*; Nle = CCCC[C@H](N)C(=O)O; Octanoyl = CCCCCCCC(=O)*

Check out these entries, answers already filled in.
{"Molecule": "CCCCCCCC(=O)N[C@@H](CCCC)C(=O)N[C@@H](CCCNC(=N)N)C(=O)N[C@@H](CCCNC(=N)N)C(=O)N[C@@H](CSSC[C@H](NC(=O)[C@H](CCCNC(=N)N)NC(=O)[C@H](CCCNC(=N)N)NC(=O)[C@H](CCCC)NC(=O)CCCCCCC)C(N)=O)C(N)=O [Compound C6] (I: Octanoyl-[Nle]RRC-NH2 / II: Octanoyl-[Nle]RRC-NH2; disulfide I:4-II:4)", "HC50": ">256 µg/mL"}
{"Molecule": "CCCCCCCC(=O)N[C@@H](Cc1ccccc1)C(=O)N[C@@H](CCCNC(=N)N)C(=O)N[C@@H](CCCNC(=N)N)C(=O)NCCCC[C@H](NC(=O)[C@H](CCCNC(=N)N)NC(=O)[C@H](CCCNC(=N)N)NC(=O)[C@H](Cc1ccccc1)NC(=O)CCCCCCC)C(N)=O [Compound B5] (Octanoyl-FRRK([Arg-Arg-Phe-Octanoyl])-NH2)", "HC50": "181.38 ± 8.99 µg/mL"}
{"Molecule": "CCCCCCCCCCCCCC(=O)N[C@@H](CCCNC(=N)N)C(=O)N[C@@H](CCCNC(=N)N)C(=O)N[C@@H](CSSC[C@H](NC(=O)[C@H](CCCNC(=N)N)NC(=O)[C@H](CCCNC(=N)N)NC(=O)CCCCCCCCCCCCC)C(N)=O)C(N)=O [Compound C4] (I: Myristoyl-Arg-Arg-Cys-NH2 / II: Myristoyl-Arg-Arg-Cys-NH2; disulfide I:3-II:3)", "HC50": "20.89 ± 1.06 µg/mL"}

Batch: HC50 for all items listed.
1. CCCCCCC(CCCC)C(=O)N[C@@H](CCCNC(=N)N)C(=O)N[C@@H](CCCNC(=N)N)C(=O)N[C@@H](CSSC[C@H](NC(=O)[C@H](CCCNC(=N)N)NC(=O)[C@H](CCCNC(=N)N)NC(=O)C(CCCC)CCCCCC)C(N)=O)C(N)=O (stereo partly drawn)
2. CCCCCCCC(=O)N[C@@H](CCCNC(=N)N)C(=O)N[C@@H](CCCNC(=N)N)C(=O)NCCCC[C@H](NC(=O)[C@H](CCCNC(=N)N)NC(=O)[C@H](CCCNC(=N)N)NC(=O)CCCCCCC)C(N)=O [Compound B1] (Octanoyl-Arg-Arg-Lys([Arg-Arg-Octanoyl])-NH2)

Reply:
[">256 µg/mL", ">256 µg/mL"]

Batch: HC50 for all items listed.
1. CCCCCCCCCCCC(=O)N[C@@H](CCCNC(=N)N)C(=O)N[C@@H](CCCNC(=N)N)C(=O)NCCCC[C@H](NC(=O)[C@H](CCCNC(=N)N)NC(=O)[C@H](CCCNC(=N)N)NC(=O)CCCCCCCCCCC)C(N)=O [Compound B3] (Lauroyl-Arg-Arg-Lys([Arg-Arg-Lauroyl])-NH2)
2. CCCCCCCCCC(=O)N[C@@H](CCCNC(=N)N)C(=O)N[C@@H](CCCNC(=N)N)C(=O)N[C@@H](CSSC[C@H](NC(=O)[C@H](CCCNC(=N)N)NC(=O)[C@H](CCCNC(=N)N)NC(=O)CCCCCCCCC)C(N)=O)C(N)=O [Compound C2] (I: Decanoyl-Arg-Arg-Cys-NH2 / II: Decanoyl-Arg-Arg-Cys-NH2; disulfide I:3-II:3)
3. CCCCCCCC(=O)N[C@@H](CCCNC(=N)N)C(=O)N[C@@H](CCCNC(=N)N)C(=O)N[C@@H](CSSC[C@H](NC(=O)[C@H](CCCNC(=N)N)NC(=O)[C@H](CCCNC(=N)N)NC(=O)CCCCCCC)C(N)=O)C(N)=O [Compound C1] (I: Octanoyl-Arg-Arg-Cys-NH2 / II: Octanoyl-Arg-Arg-Cys-NH2; disulfide I:3-II:3)
4. CCCCCCCCCCCC(=O)N[C@@H](CCCNC(=N)N)C(=O)N[C@@H](CCCNC(=N)N)C(=O)N[C@@H](CSSC[C@H](NC(=O)[C@H](CCCNC(=N)N)NC(=O)[C@H](CCCNC(=N)N)NC(=O)CCCCCCCCCCC)C(N)=O)C(N)=O [Compound C3] (I: Lauroyl-Arg-Arg-Cys-NH2 / II: Lauroyl-Arg-Arg-Cys-NH2; disulfide I:3-II:3)

Reply:
56.29 ± 6.50 µg/mL
>256 µg/mL
>256 µg/mL
36.24 ± 2.35 µg/mL
